Data origin, for the record: patent EP1736150A2

Experiment: Pharmacokinetics of sertraline delivered to various portions of the gastrointestinal tract (Example 3)
Type: in vivo
Settings: human, plasma, 200 mg, GROUP A, Stomach Infusion, 200 mg as 2 mg/ml solution
measurement.type: AUC(0-t)

The reported AUC(0-t) of the compound CN[C@H]1CC[C@@H](c2ccc(Cl)c(Cl)c2)c2ccccc21 [sertraline] was 923 ng·h/mL

----------
Assay: Pharmacokinetics of sertraline delivered to various portions of the gastrointestinal tract (Example 3)
Assay type: in vivo
Details: human, plasma, 200 mg, GROUP B, Duodenal Infusion, 200 mg as 2 mg/ml solution
measurement.type: AUC(0-t) (ng·h/mL)
Reply numerically in ng·h/mL, unit not repeated.

The reported AUC(0-t) of the compound CN[C@H]1CC[C@@H](c2ccc(Cl)c(Cl)c2)c2ccccc21 was 1270

----------
Assay: Pharmacokinetics of sertraline delivered to various portions of the gastrointestinal tract (Example 3)
Assay type: in vivo
Settings: human, plasma, 200 mg, GROUP A, Ileocecal Infusion, 200 mg as 2 mg/ml solution
measurement.type: AUC(0-t) (ng·h/mL)
Reply numerically in ng·h/mL, unit not repeated.

The reported AUC(0-t) of the compound CN[C@H]1CC[C@@H](c2ccc(Cl)c(Cl)c2)c2ccccc21 was 727

----------
Experiment: Plasma pharmacokinetics, bolus versus 7 hr divided dosing (Example 2)
Format: in vivo
Conditions: human, 200 mg single dose, two 100 mg immediate release tablets (ZOLOFT), oral, fasted, mean, four subjects with emesis not included
measurement.type: TMAX (h)
Reply numerically in h, unit not repeated.

The reported TMAX of the compound CN[C@H]1CC[C@@H](c2ccc(Cl)c(Cl)c2)c2ccccc21 [sertraline] was 5.4

----------
Test: Pharmacokinetics of sertraline delivered to various portions of the gastrointestinal tract (Example 3)
Assay type: in vivo
Details: human, plasma, po, 200 mg, GROUP A, Oral Tablet, 200 mg as two 100 mg tablets
measurement.type: AUC(0-t) (ng·h/mL)
Reply numerically in ng·h/mL, unit not repeated.

The reported AUC(0-t) of the molecule CN[C@H]1CC[C@@H](c2ccc(Cl)c(Cl)c2)c2ccccc21 [sertraline] was 1170

----------
Experiment: Plasma pharmacokinetics, bolus versus 15 hr divided dosing (Example 1)
Format: in vivo
Conditions: human, po
measurement.type: AUC(0-t) (ng·h/mL)
Reply numerically in ng·h/mL, unit not repeated.

The reported AUC(0-t) of the compound CN[C@H]1CC[C@@H](c2ccc(Cl)c(Cl)c2)c2ccccc21 was 1230

----------
Assay: Plasma pharmacokinetics, bolus versus 7 hr divided dosing (Example 2)
Type: in vivo
Conditions: human, po, 200 mg, 200 mg single dose, two 100 mg immediate release tablets (ZOLOFT), fasted, mean, four subjects with emesis not included
measurement.type: AUC(0-t) (ng·h/mL)
Reply numerically in ng·h/mL, unit not repeated.

The reported AUC(0-t) of the molecule CN[C@H]1CC[C@@H](c2ccc(Cl)c(Cl)c2)c2ccccc21 [sertraline] was 1740

----------
Assay: Pharmacokinetics of sertraline delivered to various portions of the gastrointestinal tract (Example 3)
Type: in vivo
Conditions: human, plasma, po, 200 mg, GROUP B, Oral Tablet, 200 mg as two 100 mg tablets
measurement.type: AUC(0-t) (ng·h/mL)
Reply numerically in ng·h/mL, unit not repeated.

The reported AUC(0-t) of the compound CN[C@H]1CC[C@@H](c2ccc(Cl)c(Cl)c2)c2ccccc21 [sertraline] was 1150
